Measured melting point accompanies every entry in the list below.
readout_label: melting point

[
  {
    "entry_smiles": "O=C(/C=C/c1ccc(O)cc1)CC(=O)/C=C/c1ccccc1Cl",
    "result": "158 to 161 °C"
  },
  {
    "entry_smiles": "O=C(/C=C/c1ccc(O)cc1)CC(=O)/C=C/c1cc(OCc2ccc(Cl)cc2Cl)ccc1[N+](=O)[O-]",
    "result": "157 to 161 °C"
  },
  {
    "entry_smiles": "CN(C)c1ccc(/C=C/C(=O)CC(=O)/C=C/c2ccc(N(C)C)cc2Cl)c(Cl)c1",
    "result": "238 to 241 °C"
  },
  {
    "entry_smiles": "O=C(/C=C/c1ccc(O)cc1)CC(=O)/C=C/c1cc(OCc2c(F)cccc2Cl)ccc1[N+](=O)[O-]",
    "result": "180 to 183 °C"
  },
  {
    "entry_smiles": "O=C(/C=C/c1ccc2cc[nH]c2c1)CC(=O)/C=C/c1cc(O)ccc1-c1ccccc1",
    "result": "185 to 191 °C"
  },
  {
    "entry_smiles": "Cc1ccccc1-c1ccc(O)cc1/C=C/C(=O)CC(=O)/C=C/c1ccc(O)cc1",
    "result": "173 to 177 °C"
  },
  {
    "entry_smiles": "O=C(/C=C/c1ccc(O)cc1)CC(=O)/C=C/c1ccccc1-c1ccc2ccccc2c1",
    "result": "105 to 114 °C"
  },
  {
    "entry_smiles": "O=C(/C=C/c1ccc(O)cc1)CC(=O)/C=C/c1cc(O)c(Br)cc1Br",
    "result": "255 to 259 °C"
  }
]
